We label by threshold. Values of melting point strictly beneath 90 °C are Satisfied. Values of 90 °C and up are Not satisfied.

Solved entries (count: 3):
CC(C)S(=O)(=O)Nc1cccc(C=C2c3ccccc3CCc3ccccc32)c1; Not satisfied
FC(F)Oc1ccccc1C=C1c2ccccc2CCc2ccccc21; Satisfied
COc1ccc(C=C2c3ccccc3CCc3ccccc32)cc1OC; Not satisfied

In the record for Oc1cccc(C=C2c3cccc(F)c3CCc3c(F)cccc32)c1 , is melting point less than 90 °C?
Not satisfied

====

biological target: human MR (Homo sapiens); construct: The full length human MR gene is cloned from a human kidney or human brain cDNA library; His tag from the pAcHLT vector (own knowledge); made in house; host or cells: Sf9 insect cells (baculovirus, pAcHLT transfer vector); assay: Mineralocorticoid Receptor Binding Assay ([3H]-aldosterone); settings: [3H]-aldosterone binding, human MR expressed in Sf9 cells; read-out: MR Ki
Sequence (P08235 whole entry): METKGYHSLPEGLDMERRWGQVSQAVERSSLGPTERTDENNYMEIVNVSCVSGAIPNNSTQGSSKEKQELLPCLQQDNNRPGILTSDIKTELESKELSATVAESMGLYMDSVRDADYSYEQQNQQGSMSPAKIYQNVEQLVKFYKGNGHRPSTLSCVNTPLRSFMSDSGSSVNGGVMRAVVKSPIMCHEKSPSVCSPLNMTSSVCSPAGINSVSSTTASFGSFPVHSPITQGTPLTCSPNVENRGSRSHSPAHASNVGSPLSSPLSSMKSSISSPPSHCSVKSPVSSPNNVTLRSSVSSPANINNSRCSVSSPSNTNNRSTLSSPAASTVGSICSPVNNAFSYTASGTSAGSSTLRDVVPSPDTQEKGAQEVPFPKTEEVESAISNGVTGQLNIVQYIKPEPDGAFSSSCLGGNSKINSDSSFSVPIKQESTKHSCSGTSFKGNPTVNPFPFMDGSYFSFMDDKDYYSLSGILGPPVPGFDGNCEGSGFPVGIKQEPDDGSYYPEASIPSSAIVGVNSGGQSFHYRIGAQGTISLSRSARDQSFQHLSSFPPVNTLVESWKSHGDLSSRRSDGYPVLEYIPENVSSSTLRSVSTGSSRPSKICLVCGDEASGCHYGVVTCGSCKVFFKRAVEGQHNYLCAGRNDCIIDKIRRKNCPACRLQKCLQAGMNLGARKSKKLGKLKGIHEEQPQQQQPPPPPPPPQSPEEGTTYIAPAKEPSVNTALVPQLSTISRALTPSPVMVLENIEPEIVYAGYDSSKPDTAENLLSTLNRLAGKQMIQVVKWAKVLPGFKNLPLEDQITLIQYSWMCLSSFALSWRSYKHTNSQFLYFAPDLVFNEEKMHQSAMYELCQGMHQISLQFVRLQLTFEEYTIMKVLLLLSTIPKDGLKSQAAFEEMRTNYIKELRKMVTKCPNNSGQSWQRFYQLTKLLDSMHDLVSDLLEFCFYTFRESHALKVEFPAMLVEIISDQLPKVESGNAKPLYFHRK
pKi: −log10 of the molar value.
valueKind: pKi

Oc1cccc(/C=C2\c3ccccc3CCc3c(Br)cccc32)c1; > 6.30
Cc1ccc2c(c1)C(=Cc1ccc(NS(C)(=O)=O)cc1)c1ccccc1CC2; > 6.30
O=C1Nc2ccc(Cl)cc2C(=Cc2cccc(Cl)c2)c2ccccc21 (mixture of isomers); > 6.30

// switching to the query molecule
pKi for CS(=O)(=O)Nc1cccc(/C=C2\c3ccccc3CCc3ccc(O)cc32)c1 ?
> 6.30
